- METHOD_NOTES: Cycloheximide Counterscreen for Small Molecule Inhibitors of Shiga Toxin; also: read at 38.3 µM for the half of the compounds with a filed dose; 0% is about no effect
- EXPERIMENTAL_CONDITIONS: cell reporter, cycloheximide protein synthesis inhibition counterscreen; hits give high values
Hit rate of the full screen: of about 300,000 compounds, about 37,000 (12%) were called active. Only a selection was taken, and actives are over-represented in it overall.
MEASURED_QUANTITY: max response (%)
Expressed in %, but write only the number.

// solved cases for max response follow
> print(dat)
                                   compound  measured.quantity  value.unit  measured
1  C=CCc1cccc2cc(C(=O)Nc3ccc(NC(C)=O)cc3)c(=O)oc12       max response           %      7.03
2  Cc1cc(C)c(S(=O)(=O)c2cc(F)ccc2C)c(=O)[nH]1       max response           %      2.04
3             O=C(Nc1cccc(F)c1)[C@@H]1CCCN1       max response           %   -0.0627
4  COC(=O)C1=C(C)N(c2ccc(C)cc2)/C(=C/c2ccc(O)cc2)C1=O       max response           %     -3.37

Answer with reported max response of Cn1cnc2c1c(=O)n(Cc1ccccc1C#N)c(=O)n2C
7.66

Tell me its max response given Fc1cccc(Cl)c1COc1ccc(-c2nnco2)cc1 as the entry.
24.9

Please give the documented max response of CCCSc1nc2sc3c(c2c(=O)n1-c1ccc(OC)cc1)CCN(C)C3
0.929

Note max response for the compound shown: CCC(C)c1ccc(NC(=S)N2CCCC2)cc1 (centres undefined)
35.2

Respond only with max response recorded for O=c1c2c(nc3cc(-c4cccc(Cl)c4)[nH]n13)CCCC2
52.1

Give the reported value of max response for this record: C/C(CC(=O)Nc1cccc(F)c1)=N\NC(=O)C(=O)NC1CCCCC1
12.1

====

- METHOD_NOTES: Cycloheximide Counterscreen for Small Molecule Inhibitors of Shiga Toxin; also: read at 38.3 µM for the half of the compounds with a filed dose; 0% is about no effect
- EXPERIMENTAL_CONDITIONS: cell reporter, cycloheximide protein synthesis inhibition counterscreen; hits give high values
Among all 300,000 compounds or so, about 37,000 (12%) were called active. The list comes from a sample in which actives are over-represented; it also holds close analogues and randomly drawn compounds.
MEASURED_QUANTITY: max response (%)
Respond numerically; units are % and should not be typed.

> print(dat)
                                  compound  measured.quantity  measured
1  Cc1ccc(-c2nc(COC(=O)c3c(C)noc3C)cs2)cc1       max response      73.1

Give reported max response value for CCc1ccc(NC2Nc3cc(C)nn3S2)cc1 (stereo unspecified)
49.2

Complete the entry with the larger response for CCOc1ccc(CCNC(=O)CCc2nnc3ccc(N4CCCC4)nn23)cc1OCC
1.2

Fill in reported max response for this entry: CCn1c(SCC(=O)NC2CC2)nnc1-c1ccccc1OC
-2.41

Output measured max response for this item: CCOCC(=O)NCc1ccc2c(c1)cc(C)n2C
0.782

Report max response for Cc1ccc(S(=O)(=O)NNC(=O)/C=C/c2cccc(F)c2)cc1
-1.72

Assign max response to the following record: COc1ccc(CCNC(=O)CSCc2ccc(Br)cc2)cc1OC
1.16

Name the recorded max response of the item Cc1cc2oc(=O)cc(-c3ccccc3)c2c(C)c1-c1ccc(OC(F)(F)F)cc1 in your answer.
17.1

State its max response for this compound: CN(C(=O)c1ccccc1)c1nccnc1C#N
-1.74

Tell me max response reported for O=C1C(=O)N(CCN2CCOCC2)C(c2cccc(Cl)c2)/C1=C(/O)c1ccc2c(c1)OCO2 (stereo unspecified)
1.71

In one line, give reported max response of the entry COc1ccc(CN2CCCC(N3CCc4ccccc4C3)C2)c(O)c1 (stereo unspecified) .
-0.856
